Molecular target: human progesterone receptor-A [PRA] isoform (Homo sapiens)
Construct: host or cells: insect SF21 cells (baculovirus)
Assay: Radioligand binding with human progesterone receptor cytosol ([3H]-progesterone competition)
Conditions: PRA cytosol expressed in insect SF21 cells, [3H]Prog ~0.8 nM, 4° C. overnight; Ki by Cheng-Prusoff, KL ~4.5 nM; read-out: Ki (nM) PR
assay endpoint: Ki (nM)

Some compounds with known Ki results, for comparison:
> print(dat)
                                   compound                           measured.target  assay.endpoint  recorded.result
1  COC(=O)C1=C[C@@H]([C@@H]2Oc3ccc(O)c(OC)c3-c3ccc4c(c32)C(C)=CC(C)(C)N4)CC1 (racemic) [Example 271]  human progesterone receptor-A [PRA] isoform (Homo sapiens)              Ki             2290
2  COc1cccc2c1-c1ccc3c(c1C(c1ccc(C)cc1)O2)C(C)=CC(C)(C)N3 (stereo not drawn) [Example 50]  human progesterone receptor-A [PRA] isoform (Homo sapiens)              Ki             9450
3  COc1c(OC(=O)CCC(=O)N(C)C)ccc2c1-c1ccc3c(c1C(c1cc(F)c(F)c(F)c1)O2)C(C)=CC(C)(C)N3 (stereo not drawn) [Example 381]  human progesterone receptor-A [PRA] isoform (Homo sapiens)              Ki             9820
4  COc1c(O)ccc2c1-c1ccc3c(c1[C@H]([C@@H]1C=CCCC1)O2)C(C)=CC(C)(C)N3 [Example 272]  human progesterone receptor-A [PRA] isoform (Homo sapiens)              Ki             66.4
5  COc1ccc(C2Oc3ccc(O)c(OC)c3-c3ccc4c(c32)C(C)=CC(C)(C)N4)s1 (stereo not drawn) [Example 268]  human progesterone receptor-A [PRA] isoform (Homo sapiens)              Ki              486

a = COc1c(O)ccc2c1-c1ccc3c(c1[C@H]([C@@H]1C=CCCCC1)O2)C(C)=CC(C)(C)N3 [Example 246]
b = COc1cccc2c1-c1ccc3c(c1C(c1ccc(C)c(F)c1)O2)C(C)=CC(C)(C)N3 (stereo not drawn) [Example 51]
c = COc1c(O)ccc2c1-c1ccc3c(c1C(CC(C)C)O2)C(C)=CC(C)(C)N3 (stereo not drawn) [Example 259]
Exercise: // ascending sort on recorded Ki Arrange the labels as the request states and list them.
Key: a, c, b
(a: 113 nM, c: 938 nM, b: 7330 nM)

a = COc1c(Br)cc(Br)c2c1-c1ccc3c(c1C(C1C=C(C)CCC1)O2)C(C)=CC(C)(C)N3 (stereo not drawn) [Example 303]
b = COc1cccc2c1-c1ccc3c(c1C(c1ccc(C)c(C)c1)O2)C(C)=CC(C)(C)N3 (stereo not drawn) [Example 29]
Exercise: Looking only at measured Ki, which entry is lower, a or b ? Give the label under which the chosen entry appears.
Key: a

---

Target: human progesterone receptor-A [PRA] isoform (Homo sapiens, UniProt P06401)
Construct: host or cells: insect SF21 cells (baculovirus)
Sequence (P06401 1-769 isoform P06401-2): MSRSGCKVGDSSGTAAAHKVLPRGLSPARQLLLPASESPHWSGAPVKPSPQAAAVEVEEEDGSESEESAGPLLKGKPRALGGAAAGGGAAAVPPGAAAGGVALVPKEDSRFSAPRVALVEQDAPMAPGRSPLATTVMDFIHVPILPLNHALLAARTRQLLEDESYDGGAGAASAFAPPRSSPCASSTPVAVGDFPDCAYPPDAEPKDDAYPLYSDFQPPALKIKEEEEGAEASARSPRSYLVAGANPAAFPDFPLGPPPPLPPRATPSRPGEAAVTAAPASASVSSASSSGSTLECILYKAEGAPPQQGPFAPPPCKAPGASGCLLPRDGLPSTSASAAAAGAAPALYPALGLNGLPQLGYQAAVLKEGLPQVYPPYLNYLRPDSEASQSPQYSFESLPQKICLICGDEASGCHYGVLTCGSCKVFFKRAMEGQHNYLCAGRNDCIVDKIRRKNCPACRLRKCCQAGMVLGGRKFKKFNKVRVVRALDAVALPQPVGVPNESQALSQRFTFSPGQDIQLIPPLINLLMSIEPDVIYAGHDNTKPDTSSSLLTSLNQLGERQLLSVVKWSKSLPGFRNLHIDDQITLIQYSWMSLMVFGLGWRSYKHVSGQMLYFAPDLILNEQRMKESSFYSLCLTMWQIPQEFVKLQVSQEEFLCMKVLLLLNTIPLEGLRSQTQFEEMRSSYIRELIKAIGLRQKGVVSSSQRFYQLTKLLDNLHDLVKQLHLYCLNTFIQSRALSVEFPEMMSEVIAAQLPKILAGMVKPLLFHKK
Test: Radioligand binding with human progesterone receptor cytosol ([3H]-progesterone competition)
Details: PRA cytosol expressed in insect SF21 cells, [3H]Prog ~0.8 nM, 4° C. overnight; Ki by Cheng-Prusoff, KL ~4.5 nM; read-out: Ki (nM) PR
assay endpoint: Ki (nM)

a = COc1c(O)ccc2c1-c1ccc3c(c1CO2)C(C)=CC(C)(C)N3
b = COc1cc(F)cc2c1-c1ccc3c(c1C(c1ccccc1)O2)C(C)=CC(C)(C)N3 (stereo not shown)
c = CC1=CC(C)(C)Nc2ccc3c(c21)C(c1ccccc1)Oc1cccc(C)c1-3 (stereo not shown)
d = COc1ccc(C2Oc3cccc(OC)c3-c3ccc4c(c32)C(C)=CC(C)(C)N4)s1 (stereo not shown)
e = COc1c(O)ccc2c1-c1ccc3c(c1[C@H]([C@H]1C=C(CO)CCC1)O2)C(C)=CC(C)(C)N3 (relative stereo)
Exercise: List by increasing Ki. Arrange the labels as the request states and list them.
Key: b, c, a, e, d
(b: 230 nM, c: 484 nM, a: 1900 nM, e: 3420 nM, d: 18100 nM)

I = COc1c(Cl)ccc2c1-c1ccc3c(c1C(c1ccccc1)O2)C(C)=CC(C)(C)N3 (stereo not shown)
II = CC1=CC(C)(C)Nc2ccc3c(c21)C(c1cccc(C(F)(F)F)c1)Oc1ccc(O)c(Cl)c1-3 (stereo not shown)
III = COc1cccc2c1-c1ccc3c(c1[C@H]([C@H]1C=C(C)CCC1)O2)C(C)=CC(C)(C)N3
IV = COc1c(O)ccc2c1-c1ccc3c(c1/C(=C/c1ccccn1)O2)C(C)=CC(C)(C)N3
Exercise: Rank entries according to their Ki, from the largest number down. Arrange the labels as the request states and list them.
Key: IV, I, III, II
